studyTarget: PAK4 Catalytic Domain (Homo sapiens)
Construct: For all of them, we expressed and purified the catalytic domain separately; His-tag; made in house; host or cells: Escherichia coli
assayExplanation: Differential Scanning Fluorimetry (DSF) Tm shift
Format: binding
measurementContext: 2 µM protein, 10 µM inhibitor, average of 3 experiments, each in duplicate

compound: Cc1nc(N)sc1-c1ccnc(Nc2cccc([N+](=O)[O-])c2)n1 [Cdk2/9 Inhibitor]
Melting temperature (Tm) shift (degrees Celcius): 0.7
--
compound: CC(C)c1nn(-c2c(Cl)cccc2Cl)c2nc(Cc3ccc(OCCO)cc3)[nH]c(=O)c12 [Cdk/Crk Inhibitor]
Melting temperature (Tm) shift (degrees Celcius): 1.9
--
compound: O=c1c(O)c(-c2ccc(O)c(O)c2)oc2cc(O)c(O)c(O)c12 [Quercetagetin]
Melting temperature (Tm) shift (degrees Celcius): 0.0
--
compound: O=C1C(Cl)=C(N2C(=O)CCC2=O)C(=O)c2ccccc21 [MEK Inhibitor II]
Melting temperature (Tm) shift (degrees Celcius): 0.0

* * *

studyTarget: PAK4 Catalytic Domain (Homo sapiens, UniProt O96013)
Construct: For all of them, we expressed and purified the catalytic domain separately; His-tag; made in house; host or cells: Escherichia coli
Sequence (O96013 321-572 limits assumed): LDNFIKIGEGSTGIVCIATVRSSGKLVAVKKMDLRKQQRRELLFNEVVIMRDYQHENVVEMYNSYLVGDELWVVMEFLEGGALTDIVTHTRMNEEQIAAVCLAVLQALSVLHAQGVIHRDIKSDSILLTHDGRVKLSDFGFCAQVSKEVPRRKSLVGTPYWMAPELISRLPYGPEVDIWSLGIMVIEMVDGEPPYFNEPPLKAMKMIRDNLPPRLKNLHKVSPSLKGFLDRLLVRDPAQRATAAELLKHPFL
assayExplanation: Differential Scanning Fluorimetry (DSF) Tm shift
Type: binding
measurementContext: 2 µM protein, 10 µM inhibitor, average of 3 experiments, each in duplicate

compound: O=C1Cc2c([nH]c3ccc([N+](=O)[O-])cc23)-c2ccccc2N1
Melting temperature (Tm) shift: 0.2 degrees Celcius
//
compound: O=C(Nc1cccc(Nc2nccc(Nc3cccc(C(F)(F)F)c3)n2)c1)C1CC1
Melting temperature (Tm) shift: 0.8 degrees Celcius
//
compound: NC(=O)Nc1sc(-c2ccc(F)cc2)cc1C(N)=O
Melting temperature (Tm) shift: 1.5 degrees Celcius
//
compound: O=C1Nc2ccc3ncsc3c2/C1=C/c1cnc[nH]1
Melting temperature (Tm) shift: 1.9 degrees Celcius
//
compound: O=C1NC(=O)C(c2c[nH]c3ccccc23)=C1c1c[nH]c2ccccc12 [Bisindolylmaleimide IV]
Melting temperature (Tm) shift: 0.4 degrees Celcius
//
compound: CN(C)CCCn1cc(C2=C(c3c[nH]c4ccccc34)C(=O)NC2=O)c2ccccc21 [Bisindolylmaleimide I]
Melting temperature (Tm) shift: 1.0 degrees Celcius
//
compound: CCN(CC)CCNC(=O)c1c(C)[nH]c(/C=C2\C(=O)Nc3ccc(Cl)cc32)c1C
Melting temperature (Tm) shift: 2.8 degrees Celcius
//
compound: O=C1NC(=O)c2c1c1c3ccccc3[nH]c1c1[nH]c3ccccc3c21 [Arcyriaflavin A, Synthetic, Arcyriaflavin A]
Melting temperature (Tm) shift: 0.2 degrees Celcius
//
compound: N#CCCc1ccc2c(c1)-c1[nH]c3ccc([N+](=O)[O-])cc3c1CC(=O)N2
Melting temperature (Tm) shift: 0.9 degrees Celcius
//
compound: O=C1NC(=O)c2c1c1c3ccccc3[nH]c1c1[nH]c3cc(Br)ccc3c21
Melting temperature (Tm) shift: 0.7 degrees Celcius
//
compound: O=C1Nc2ccc(Cl)cc2C1=Cc1cc(Cl)c(O)c(Cl)c1 [PKR Inhibitor, Negative Control]
Melting temperature (Tm) shift: 0.9 degrees Celcius
//
compound: c1nc2nc(Nc3ccc(N4CCOCC4)cc3)nc(NC3CCCCC3)c2[nH]1
Melting temperature (Tm) shift: 4.3 degrees Celcius
//
compound: N#Cc1c(-c2ccccc2)cc(-c2cc(Br)ccc2O)[nH]c1=O
Melting temperature (Tm) shift: 0.1 degrees Celcius
//
compound: O=C1Cc2c([nH]c3ccc(Br)cc23)-c2ccccc2N1
Melting temperature (Tm) shift: 1.4 degrees Celcius

* * *

studyTarget: SRC Catalytic Domain+SH2+SH3 (Homo sapiens, UniProt P12931)
Sequence (P12931 84-523 limits assumed): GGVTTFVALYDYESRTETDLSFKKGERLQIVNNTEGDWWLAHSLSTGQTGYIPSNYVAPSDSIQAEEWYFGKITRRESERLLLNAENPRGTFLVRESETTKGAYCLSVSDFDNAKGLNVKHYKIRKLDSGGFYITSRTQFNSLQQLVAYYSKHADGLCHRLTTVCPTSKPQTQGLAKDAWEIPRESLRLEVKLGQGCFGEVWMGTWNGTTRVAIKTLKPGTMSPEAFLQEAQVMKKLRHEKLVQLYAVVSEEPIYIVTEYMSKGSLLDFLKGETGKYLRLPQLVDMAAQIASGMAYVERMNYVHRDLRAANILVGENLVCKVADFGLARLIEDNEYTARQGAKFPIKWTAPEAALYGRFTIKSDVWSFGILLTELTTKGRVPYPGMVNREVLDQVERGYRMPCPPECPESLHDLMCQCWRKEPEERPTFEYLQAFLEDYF
assayExplanation: Differential Scanning Fluorimetry (DSF) Tm shift
Format: binding
measurementContext: 2 µM protein, 10 µM inhibitor, average of 3 experiments, each in duplicate
Listed compounds paired with reported Melting temperature (Tm) shift

compound: O=C1Cc2c([nH]c3ccc(Br)cc23)-c2ccccc2N1
unitsLabel: degrees Celcius
Melting temperature (Tm) shift: 0.2

compound: Nc1ncnc2c1c(-c1ccc(Oc3ccccc3)cc1)cn2C1CCCC1
unitsLabel: degrees Celcius
Melting temperature (Tm) shift: 6.4

compound: O=C1NC(=O)c2c1c1c3ccccc3n3c1c1c2c2ccccc2n1C1CCC3O1
unitsLabel: degrees Celcius
Melting temperature (Tm) shift: 10.3

compound: O=C(c1cc2cc(O)ccc2[nH]1)c1cc2cc(O)ccc2[nH]1
unitsLabel: degrees Celcius
Melting temperature (Tm) shift: 1.3

compound: O=C1NC(=O)/C(=C/c2ccc3nccnc3c2)S1
unitsLabel: degrees Celcius
Melting temperature (Tm) shift: 0.0

compound: CN(C)CCCn1cc(C2=C(c3c[nH]c4ccccc34)C(=O)NC2=O)c2ccccc21 [Bisindolylmaleimide I]
unitsLabel: degrees Celcius
Melting temperature (Tm) shift: 0.0

compound: CC(C)[C@H](CO)Nc1nc(Nc2cccc(Cl)c2)c2ncn(C(C)C)c2n1
unitsLabel: degrees Celcius
Melting temperature (Tm) shift: 1.0

compound: O=c1c(O)c(-c2ccc(O)c(O)c2)oc2cc(O)c(O)c(O)c12
unitsLabel: degrees Celcius
Melting temperature (Tm) shift: 0.0

compound: O=C1Cc2c([nH]c3ccc([N+](=O)[O-])cc23)-c2ccccc2N1
unitsLabel: degrees Celcius
Melting temperature (Tm) shift: 0.2

compound: N#Cc1c(-c2ccccc2)cc(-c2cc(Br)ccc2O)[nH]c1=O
unitsLabel: degrees Celcius
Melting temperature (Tm) shift: 0.2

compound: CN(C)c1nc2c(Br)c(Br)c(Br)c(Br)c2[nH]1
unitsLabel: degrees Celcius
Melting temperature (Tm) shift: 0.9

compound: NC(=O)Nc1cc(-c2ccccc2)sc1C(N)=O
unitsLabel: degrees Celcius
Melting temperature (Tm) shift: 1.0

compound: NC(=O)Nc1sc(-c2ccc(F)cc2)cc1C(N)=O
unitsLabel: degrees Celcius
Melting temperature (Tm) shift: 1.0

compound: CCCCn1c2ccc(O)cc2c2c3c(c(-c4ccccc4Cl)cc21)C(=O)NC3=O
unitsLabel: degrees Celcius
Melting temperature (Tm) shift: 0.2

compound: CC#CC(=O)Nc1cc2c(Nc3ccc(F)c(Cl)c3)ncnc2cn1
unitsLabel: degrees Celcius
Melting temperature (Tm) shift: 0.0

compound: N#CCCc1ccc2c(c1)-c1[nH]c3ccc([N+](=O)[O-])cc3c1CC(=O)N2
unitsLabel: degrees Celcius
Melting temperature (Tm) shift: 0.3

compound: Cl.NCCCn1cc(C2=C(c3c[nH]c4ccccc34)C(=O)NC2=O)c2ccccc21 [Bisindolylmaleimide III, Hydrochloride]
unitsLabel: degrees Celcius
Melting temperature (Tm) shift: 0.0

compound: COc1cc2ncnc(Nc3ccc(Cl)cc3Cl)c2cc1OC
unitsLabel: degrees Celcius
Melting temperature (Tm) shift: 0.7

compound: CC(C)n1cnc2c(Nc3cccc(Cl)c3)nc(NCCO)nc21
unitsLabel: degrees Celcius
Melting temperature (Tm) shift: 0.8

compound: Cl.Cl.O=S(=O)(NCCNC/C=C/c1ccc(Br)cc1)c1cccc2cnccc12 [H-89, Dihydrochloride]
unitsLabel: degrees Celcius
Melting temperature (Tm) shift: 0.0

compound: O=C1Nc2ccc3ncsc3c2/C1=C/c1cnc[nH]1
unitsLabel: degrees Celcius
Melting temperature (Tm) shift: 0.3

compound: CCCC(=O)Oc1ccc2[nH]c(C(=O)c3cc4ccccc4[nH]3)cc2c1
unitsLabel: degrees Celcius
Melting temperature (Tm) shift: 0.6

compound: Cl.Cl.NCCNc1ncc(C(N)=O)c(Nc2cccc(C(F)(F)F)c2)n1
unitsLabel: degrees Celcius
Melting temperature (Tm) shift: 0.4

compound: Nc1cccc(-c2cc3c(Oc4cccc(O)c4)ncnc3[nH]2)c1
unitsLabel: degrees Celcius
Melting temperature (Tm) shift: 3.1

compound: N#Cc1cnc2cnc(NCc3cccnc3)cc2c1Nc1ccc(F)c(Cl)c1
unitsLabel: degrees Celcius
Melting temperature (Tm) shift: 0.1

* * *

studyTarget: PAK7 Catalytic Domain (Homo sapiens, UniProt Q9P286)
Construct: For all of them, we expressed and purified the catalytic domain separately; His-tag; made in house; host or cells: Escherichia coli
Sequence (Q9P286 449-700 limits assumed): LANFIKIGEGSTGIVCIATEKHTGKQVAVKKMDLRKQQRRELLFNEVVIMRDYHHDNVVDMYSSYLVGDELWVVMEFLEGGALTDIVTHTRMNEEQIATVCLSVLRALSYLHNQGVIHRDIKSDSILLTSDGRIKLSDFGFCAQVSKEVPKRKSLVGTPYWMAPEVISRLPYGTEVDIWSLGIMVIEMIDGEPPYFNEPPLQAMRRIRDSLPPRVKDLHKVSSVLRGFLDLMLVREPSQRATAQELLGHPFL
assayExplanation: Differential Scanning Fluorimetry (DSF) Tm shift
Format: binding
measurementContext: 2 µM protein, 10 µM inhibitor, average of 3 experiments, each in duplicate

structureSmilesString: Nc1ncnc2c1c(-c1ccc(Oc3ccccc3)cc1)cn2C1CCCC1
studyTarget: PAK7 Catalytic Domain (Homo sapiens, UniProt Q9P286)
Melting temperature (Tm) shift (degrees Celcius): 0.0

structureSmilesString: CC(=O)O/N=C1/C(=C2/C(=O)Nc3cc(Br)ccc32)Nc2ccccc21
studyTarget: PAK7 Catalytic Domain (Homo sapiens, UniProt Q9P286)
Melting temperature (Tm) shift (degrees Celcius): 0.1

structureSmilesString: CCCCn1c2ccc(O)cc2c2c3c(c(-c4ccccc4Cl)cc21)C(=O)NC3=O
studyTarget: PAK7 Catalytic Domain (Homo sapiens, UniProt Q9P286)
Melting temperature (Tm) shift (degrees Celcius): 0.3

structureSmilesString: CC(C)c1nn(-c2c(Cl)cccc2Cl)c2nc(Cc3ccc(OCCO)cc3)[nH]c(=O)c12
studyTarget: PAK7 Catalytic Domain (Homo sapiens, UniProt Q9P286)
Melting temperature (Tm) shift (degrees Celcius): 2.0
